- Tested on: RXF 393 renal
- protocol text: NCI tumour cell line growth inhibition, 48 h

{"molecule": "NS(=O)(=O)c1ccc(N=Nc2nc3[nH]cnc(=S)c3[nH]2)cc1", "TGI": "> 22.1 µM"}
{"molecule": "O=[N+]([O-])c1cc([N+](=O)[O-])c(C(Cl)C(Cl)c2ccccc2)cc1C(Cl)C(Cl)c1ccccc1 (stereo not given)", "TGI": "2.73 µM"}
{"molecule": "COc1cc([N+](=O)[O-])c(OC)cc1-c1nc2n(c1/C(N)=N/C(=N)N)CCS2", "TGI": "> 100 µM"}
{"molecule": "CN1CCN(CCCOc2ccc3nc(Nc4ccc(C(F)(F)F)c(Cl)c4)ccc3c2)CC1", "TGI": "3.03 µM"}
{"molecule": "O=C1C(Cl)=C(Nc2cccc(O)c2)C(=O)N1c1ccc(Cl)cc1Cl", "TGI": "67.3 µM"}
{"molecule": "CCN(CC)C(=O)N[C@@H](Cc1ccccc1)C(=O)NC", "TGI": "> 100 µM"}
{"molecule": "O=C1CCCCCCCCCCC1CN(Cc1ccccc1)Cc1ccccc1 (stereo not given)", "TGI": "70.2 µM"}
{"molecule": "COc1cc(S(=O)(=O)Nc2ccc(-c3csc(/N=C\\C=C\\c4ccccc4)n3)cc2)ccc1Cl", "TGI": "80.2 µM"}
{"molecule": "Cc1ccc(-c2n[nH]c(=O)n2N2C(=O)C=CC2=O)cc1", "TGI": "> 100 µM"}
{"molecule": "O=C1NCC2(CCNCC2)N1", "TGI": "> 100 µM"}

----------
- Test system: NCI-H226 lung
- protocol text: NCI tumour cell line growth inhibition, 48 h
Parameter: TGI. Scope: all listed entries.

{"compound": "CC(=O)[C@]1(C)[C@H](C)O[C@](C)(CO)[C@H]1O[Si](C)(C)c1ccccc1", "study system": "NCI-H226 lung", "TGI": "> 100 µM"}
{"compound": "COc1cc(C2C(C(=O)OCc3ccccc3)=C(C)NC(C)=C2C(=O)OCc2ccccc2)cc(OC)c1OC", "study system": "NCI-H226 lung", "TGI": "> 100 µM"}
{"compound": "CCOc1ccc(N=Nc2c(-c3ccccc3)nn(C(=O)CC(=O)Nc3cccc(C)c3)c2-c2ccccc2)cc1", "study system": "NCI-H226 lung", "TGI": "> 100 µM"}
{"compound": "NS(=O)(=O)c1ccc(N=Nc2nc3[nH]cnc(=S)c3[nH]2)cc1", "study system": "NCI-H226 lung", "TGI": "> 76.5 µM"}
{"compound": "COc1ccc(C(=O)C(CC2C(=O)CC(C)(C)C(C(=O)C(=O)Nc3c(C)cccc3C)C2=O)c2ccc(OC)cc2)cc1 (stereo not given)", "study system": "NCI-H226 lung", "TGI": "> 100 µM"}

----------
- Test system: NCI-H23 lung
- protocol text: NCI tumour cell line growth inhibition, 48 h
property: log10 TGI (log10 of the value in µM)

{"compound": "CCCCCCCCCCNC(=S)OCCCC", "log10 TGI": 1.73}
{"compound": "CCC[CH2][Ge]([CH2]CCC)([CH2]CCC)[O]C(=O)C(OC(C)=O)c1ccccc1 (stereo unspecified)", "log10 TGI": 0.80}
{"compound": "COc1ccc(C(=O)c2cc(OC)c(OC)c(OC)c2)cc1/C=C/C(=O)c1ccc2c(c1)OCO2", "log10 TGI": 0.91}
{"compound": "CCCCCCCCCCCCCCCCNc1ccc2c(c1)OCCOCCOCCOCCO2", "log10 TGI": 1.06}
{"compound": "CN1CCN(CCCOc2ccc3nc(Nc4ccc(C(F)(F)F)c(Cl)c4)ccc3c2)CC1", "log10 TGI": 0.48}
{"compound": "Cc1cccc2c(N)c3cccc(C(=O)NCCN4CCOCC4)c3nc12", "log10 TGI": 0.34}
{"compound": "CCNC(=O)c1ccc2c(c1)nc(-c1ccc(Cl)cc1)n2-c1cc(C(C)(C)C)[nH]n1", "log10 TGI": 1.31}
{"compound": "Nc1ncnc2c1c(C(=O)NO)cn2C1OC(CO)C(O)C1O (stereo unspecified)", "log10 TGI": 0.46}
{"compound": "CC1OC(n2cc(I)c(=O)[nH]c2=O)C=CC1=O (stereo unspecified)", "log10 TGI": 1.49}

----------
- Tested on: ACHN renal
- protocol text: NCI tumour cell line growth inhibition, 48 h; in the data active means GI50 below about 0.43 µM; inactive means the rest
Possible outcomes: True = active, False = inactive

{"compound": "COc1ccc2cc(C(=O)/C=C/c3ccco3)ccc2c1", "class name": "False"}
{"compound": "Cc1ccc(C(CC(=O)c2ccccc2)C(C(=O)c2ccccc2)C(c2ccc(C)cc2)C2C(=O)NC(=S)NC2=O)cc1 (stereo not given)", "class name": "False"}
{"compound": "CCNC(=O)c1ccc2c(c1)nc(-c1ccc(Cl)cc1)n2-c1cc(C(C)(C)C)[nH]n1", "class name": "False"}
{"compound": "Cc1[nH]c2ccccc2c1C1=CC(=O)C=CC1=O", "class name": "False"}
{"compound": "Cc1cccc2c1ccc1c3occ(C)c3c(=O)oc21", "class name": "False"}
{"compound": "CNC(=O)c1c(NC(=O)c2ccc(C(C)C)cc2)sc2c1CCC(=O)C2", "class name": "True"}
{"compound": "COc1cc(C2C(C(=O)OCc3ccccc3)=C(C)NC(C)=C2C(=O)OCc2ccccc2)cc(OC)c1OC", "class name": "False"}
{"compound": "O=C(Nc1cccc(-n2cc(-c3ccncc3)c(-c3ccc(O)c(Cl)c3)n2)c1)c1ccc(N2CCOCC2)c(C(F)(F)F)c1", "class name": "False"}
{"compound": "O=C1C(Cl)=C(Nc2cccc(O)c2)C(=O)N1c1ccc(Cl)cc1Cl", "class name": "False"}
{"compound": "Cc1csc(-c2ccc3c(c2)COC3(CCCN(C)C)c2ccc(F)cc2)c1 (stereo not given)", "class name": "False"}

----------
- System: OVCAR-8 ovarian
- protocol text: NCI tumour cell line growth inhibition, 48 h
property: TGI

{"compound": "CC(=O)Nc1ccc(S(=O)(=O)c2ccc(NC(C)=O)cc2)cc1", "property": "TGI", "recorded measurement": "> 100 µM"}
{"compound": "CC1=C2[C@@H](c3ccccc3)C3C=CC2(c2ccccc23)N(C(=O)Nc2cccc3ccccc23)C1=O (stereo not given in full)", "property": "TGI", "recorded measurement": "> 100 µM"}
{"compound": "COC(=O)c1cc(NC(=O)CN(CCN(CC(=O)O)CC(=O)Nc2ccc(O)c(C(=O)OC)c2)CC(=O)O)ccc1O", "property": "TGI", "recorded measurement": "> 100 µM"}
{"compound": "Cc1cccc(Nc2nc(NNC(=O)Cc3ccccc3)nc(NNC(=O)c3ccncc3)n2)c1", "property": "TGI", "recorded measurement": "> 10 µM"}
{"compound": "O=c1[nH]cnc2c1ncn2C1SC(CO)C(O)C1O (stereo not given)", "property": "TGI", "recorded measurement": "> 100 µM"}
{"compound": "CN1CCc2cc(O)c3cc2C1Cc1ccc(cc1)Oc1cc(ccc1O)CC1c2c(cc4c(c2O3)OCO4)CCN1C (stereo not given)", "property": "TGI", "recorded measurement": "48.9 µM"}
{"compound": "Nc1ccc(-c2nc3ccccc3s2)cc1F", "property": "TGI", "recorded measurement": "> 100 µM"}
{"compound": "COc1cc(C(=O)Nc2cc(O)c(C/C=C(\\C)CCC=C(C)C)c(O)c2)cc2c1O[C@]1(C)CC[C@@H](O)C(C)(C)[C@H]1C2", "property": "TGI", "recorded measurement": "31.4 µM"}
{"compound": "CSc1n[nH]c2n[nH]c(C)c12", "property": "TGI", "recorded measurement": "> 100 µM"}
{"compound": "COC(=O)CCSC1=CC(=O)c2nc3ccccc3c3ccnc1c23", "property": "TGI", "recorded measurement": "> 56.3 µM"}
{"compound": "O=C(O)CP(=O)(c1ccccc1)c1ccccc1.O=C(O)CP(=O)(c1ccccc1)c1ccccc1.[Cd]", "property": "TGI", "recorded measurement": "> 100 µM"}
{"compound": "O=C1C(Cl)C(c2cccc(Br)c2)N1c1c(O)c(Cl)cc(Br)c1Cl (stereo not given)", "property": "TGI", "recorded measurement": "> 100 µM"}
{"compound": "CS(=O)(=O)N(CC(=O)O)Cc1ccccc1", "property": "TGI", "recorded measurement": "> 100 µM"}
{"compound": "C/C=C(\\C)C(=O)OC1C2C(C)C(=O)OC2C(O)C(C)C2C=CC(=O)C21C (stereo not given)", "property": "TGI", "recorded measurement": "34.8 µM"}
{"compound": "CC(C)N(C(=O)C12C3C4C5C3C1(C#N)C5C42)C(C)C (stereo not given)", "property": "TGI", "recorded measurement": "> 100 µM"}
